System: Neuropilin-2 / VEGF-C interaction (human)
procedure.text: inhibitors of NRP2–VEGF-C binding, biochemical, microplate binding format, z-score (AID 743281)
condition: microplate NRP2/VEGF-C binding assay; stronger effect = lower value
The source made the active and inactive calls. How the calls were made is not given here.
property.label: z-score

A selection of reference data follows.
[[record]]
compound = "NC(=O)OCCCc1ccccc1"
result = "-0.636 (inactive)"

[[record]]
compound = "CCOC(=O)c1cncn1[C@H](C)c1ccccc1"
result = "0.0538 (inactive)"

[[record]]
compound = "COc1cc(N)c(Cl)cc1C(=O)NC1CN2CCC1CC2 (configuration not stated)"
result = "-0.38 (inactive)"

[[record]]
compound = "CCOC(=O)C1(c2ccccc2)CCN(CCC(C#N)(c2ccccc2)c2ccccc2)CC1"
result = "-0.718 (inactive)"

[[record]]
compound = "O=C(O)C(Cl)Cl"
result = "0.208 (inactive)"


Dear colleague, I am looking for the recorded z-score of the following compound: CC[C@@H]1/C=C\C=C\C[C@H](C)[C@@H](O)[C@@H](C)C(=O)[C@H](C)[C@@H](O)[C@H](C)C(=O)[C@H](C)[C@@H](O)[C@H](C)/C=C/C(=O)O[C@H]2[C@@H](C)[C@@H](CC1)O[C@@]1(CC[C@@H](C)[C@@H](C[C@H](C)O)O1)[C@@H]2C inactive

Dear colleague, I am looking for the recorded z-score of the following compound: COc1ccc2c(c1)C13CCCC[C@@H]1C(C2)N(C)CC3 (some centres not stated) -0.757 (inactive)

What does the record list as z-score for CC12CCC(=O)C=C1CC[C@@H]1[C@@H]2CCC2(C)[C@H]1CC[C@]2(C)O (some centres not stated) ? inactive

Please report the recorded z-score for CCC(COC(=O)c1cc(OC)c(OC)c(OC)c1)(c1ccccc1)N(C)C (configuration not stated) . -1.07 (inactive)

Consider the compound COc1ccc(C(CN(C)C)C2(O)CCCCC2)cc1 (configuration not stated) and give its measured z-score. 0.57 (inactive)

Can you look up the measured z-score of O=C1CN=C(c2ccccc2)c2cc([N+](=O)[O-])ccc2N1 for me? 1.12 (inactive)

Could you tell me which z-score is on file for CC12C/C(=C/O)C(=O)C[C@@H]1CC[C@@H]1[C@@H]2CCC2(C)[C@H]1CC[C@]2(C)O (some centres not stated) ? inactive

GET /values?readout=z-score&item= CN1C(=O)CN=C(c2ccccc2)c2cc(Cl)ccc21 -0.636 (inactive)

Quick one: z-score for CC12CC[C@H]3[C@@H](CCC4=CC(=O)CC[C@@H]43)[C@@H]1CC[C@@H]2O (some centres not stated) ? inactive

What value of z-score has been reported for the following compound? c1ccc2c3c([nH]c2c1)CNCC3 -0.415 (inactive)

What value of z-score has been reported for the following compound? CCCCCCCCCOc1ccc2[nH]cc(CCN)c2c1 -2.82 (inactive)

State the recorded z-score for this entry: NC(=NCc1ccc(Cl)cc1)SCCCc1cnc[nH]1 -0.336 (inactive)

Report z-score for Cc1ncc2n1-c1ccc(Cl)cc1C(c1ccccc1F)=NC2 please. -0.669 (inactive)

Query (compound): Cc1ccc(-c2nc3ccc(C)cn3c2CC(=O)N(C)C)cc1 ; field requested: z-score -0.569 (inactive)

Reported z-score for O[C@@H]1CCCC[C@H]1N1CCC(c2ccccc2)CC1 : what is it? -0.802 (inactive)

Given the compound O=C1Nc2ccc(Cl)cc2C(c2ccccc2Cl)=NC1O (configuration not stated) , what is its reported z-score? -0.398 (inactive)

Please report the recorded z-score for CC12CC[C@H]3[C@@H](CC=C4C[C@@H](O)CCC43C)[C@@H]1CCC2=O (some centres not stated) . inactive

Sample Oc1cc2c(cc1O)[C@H]1c3ccccc3CN[C@@H]1CC2 — what was its z-score? -4.26 (active)

Which value of z-score has been reported for Oc1ccc2c3c1O[C@H]1c4[nH]c5ccccc5c4CC4(O)C(C2)N(CC2CC2)CC[C@]314 (some centres not stated) in the records? inactive

Requested field: z-score. Item: CC[C@]1(O)CC[C@H]2[C@@H]3CCC4=CCCC[C@@H]4[C@H]3CCC21C (some centres not stated) inactive

----------
procedure.text: growth inhibition of GSK3B-pretreated HCT116 cells – cell-based, CellTiter-Glo, 0.2 to 20 µM (AID 1117336)
condition: HCT116 viability after GSK3B inhibitor, at 20 µM, stronger effect = higher value
Activity calls are given as the source filed them.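 The calls were made as follows: active = compounds lowering colon cancer cell viability after pretreatment blocking the GSK3B kinase; inactive = the rest.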
Recorded viability decrease, one value per entry.

Known viability decrease results, listed for orientation:
[[record]]
compound = "C[C@@H]1CC[C@H]2[C@@H](C)C(=O)O[C@@H]3O[C@@]4(C)CC[C@@H]1[C@]32OO4"
property_label = "viability decrease"
result = "-77.7% (inactive)"

[[record]]
compound = "NCCC[C@H](N)C(=O)O"
property_label = "viability decrease"
result = "-5.15% (inactive)"

[[record]]
compound = "CC(C)(C)CC(C)(C)c1ccc(O)cc1"
property_label = "viability decrease"
result = "84.6% (active)"

[[record]]
compound = "CNCC(=O)c1ccc(O)c(O)c1"
property_label = "viability decrease"
result = "44.4% (inactive)"

[[record]]
compound = "c1ccc2c(c1)sc1ccccc12"
property_label = "viability decrease"
result = "-3.95% (inactive)"


Query (compound): CC(C)NCC(O)c1ccccc1Cl (configuration not stated) ; field requested: viability decrease -4.5% (inactive)

Which value of viability decrease has been reported for CC[n+]1c(-c2ccccc2)c2cc(N)ccc2c2ccc(N)cc21 in the records? -24.6% (active)

Form field: reported viability decrease of CCC(=O)O[C@@H]1C=C2CCC3C(CCC4(C)C3CC[C@@H]4OC(=O)CC)C2CC1 (some centres not stated) 7.6% (inactive)

# get_value(readout='viability decrease', item= c1ccc(N2CCNCC2)cc1 ) 3.7% (inactive)

Consider the compound shown here: COc1ccc(C(=O)c2c(C)n(CCN3CCOCC3)c3ccccc23)cc1 What is its recorded viability decrease? 75% (active)

Quick one: viability decrease for C=C(C)[C@H]1CN[C@H](C(=O)O)[C@H]1CC(=O)O ? 3.4% (inactive)

Fill in: viability decrease of CCN(CCO)CCn1c(Cc2ccccc2)nc2c1c(=O)n(C)c(=O)n2C is ___ -6% (inactive)

----------
Listing of entries alongside the reported inhibition.
procedure.text: ICB984 medulloblastoma cell growth inhibition, synergistic combos for chromothripsis tumors, cisplatin or BGB combos (AID 1671451);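 further: cells exposed for 96 hours before readout; 0% = vehicle DMSO and 100% = killing by high DMSO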
condition: ICB984 medulloblastoma cells, drug combinations, measured here: 5 uM single agent, at 5 µM, stronger effect = higher value
Report as: number unit

[[record]]
molecule = "CCC1(c2ccccc2)C(=O)NC(=O)NC1=O"
result = "-22.7%"

[[record]]
molecule = "Cn1c(CCCC(=O)O)nc2cc(N(CCCl)CCCl)ccc21"
result = "-9.28%"


Param item = Cn1c(COP(=O)(NCCBr)NCCBr)cnc1[N+](=O)[O-] ; retrieve measured inhibition. -29.2%

Bench note: what inhibition did CC1(C)C(C(=O)Nc2ccc(S(=O)(=O)c3ccc(NC(=O)C4C(C)(C)C4(C)C)cc3)cc2)C1(C)C show? -26.8%

Need inhibition of COc1cc(C2c3cc4c(cc3C(O)C3COC(=O)C23)OCO4)cc(OC)c1OC (centres undefined) , thanks. 19.6%

# get_value(readout='inhibition', item= NC(Cc1ccc(N(CCCl)CCCl)cc1)C(=O)O (centres undefined) ) -16.8%

What value of inhibition has been reported for the following molecule? O=C1CCC[C@@H]2[C@H]3CCCN4CCC[C@@H](CN12)[C@@H]34 1.92%

What does the record list as inhibition for O=c1[nH]c(=O)n(C2OC(CO)C(O)C2O)cc1F (centres undefined) ? -6.81%

Quick one: inhibition for Cc1c2ccncc2c(C)c2c1[nH]c1ccccc12 ? -6.79%

----------
procedure.text: differential killing of epithelial or mesenchymal cells, primary screen, imaging, PC-3E GFP, TEM4-18 mCherry, co-culture (AID 1345086);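 further: normalised mesenchymal count divided by normalised epithelial count so high means epithelial killing; cells exposed to compound for 72 h before imaging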
condition: imaging cell counts, at 1 µM, actives lie on both sides, counts scaled to control wells, 1 = unselective
Known red/green cell ratio (normalised) of a selection of compounds
Number only, no unit.

Example entries and their recorded answers appear below.
[[record]]
compound = "C[C@@H]1[C@H](O)[C@@H](C)/C=C/C=C/CC/C=C/C=C/C=C/C=C/[C@H](OC2O[C@H](C)[C@@H](O)[C@H](N)[C@@H]2O)C[C@@H]2O[C@](O)(C[C@@H](O)[C@H](O)CC[C@@H](O)C[C@@H](O)C[C@@H](O)CC(=O)O[C@H]1C)C[C@H](O)[C@H]2C(=O)O (some centres not stated)"
result = 0.86

[[record]]
compound = "C[C@@H]1C(=O)OC2[C@H](O)C34[C@@H]5OC(=O)[C@@]3(OC3OC(=O)[C@H](O)[C@@]34[C@H](C(C)(C)C)[C@H]5O)[C@]21O (some centres not stated)"
result = 1.08

[[record]]
compound = "COc1ccc(C(CN(C)C)C2(O)CCCCC2)cc1 (configuration not stated)"
result = 1.25

[[record]]
compound = "C[C@@H]1CC[C@@]2(NC1)OC1CC3C4CC=C5C[C@@H](O)CC[C@]5(C)C4CC[C@]3(C)C1[C@@H]2C (some centres not stated)"
result = 1.02

[[record]]
compound = "CC1NCCc2cc(O)c(O)cc21 (configuration not stated)"
result = 0.96


Please examine the following record next.
Requested field: red/green cell ratio (normalised). Item: COP(=O)(OC)OC=C(Cl)Cl 1.1
